# Test system: OVCAR-4 ovarian
# testMethodNotes: NCI-60 one-dose screen, 48 h
# particulars: 10 µM unless noted
This is part of a sample that, as a whole, favours compounds with a hit. Of some 83,000 tested, about 20% had one in any assay. The source made the active and inactive calls. Rule for the calls: active = growth percent below 10; inactive = the rest.
Outcome (select one): active, inactive

compound	labelValue
Cc1ccc(C)c(/C=C2\CN(C(=O)OC(C)(C)C)C/C(=C\c3cc(C)ccc3C)C2=O)c1	inactive
CCCCNc1nnc2n(Cc3ccccc3)c(=O)c3c4c(sc3n12)CCCC4	inactive
CCc1ccc(CCC(=O)Nc2ncc(Cc3ccccc3)s2)o1	inactive
O=S(=O)(NCCNc1nccc(-c2c(-c3ccc(F)c(O)c3)nc3sccn23)n1)c1ccc(F)cc1	inactive
CC1=C(CCC(C)NCc2ccc(OCCCN3CCCCC3)cc2)C(C)(C)CCC1 (configuration not stated)	active
O=C(CI)NC(=O)NC(=O)NCc1ccccc1	inactive
O=C(CC(=O)Nc1cccc(C(=O)O)c1)Nc1cccc(C(=O)O)c1	inactive
CC1(C)OB(O)c2cc(-c3nc4ccc5[nH]ncc5c4c4c3CCCC4)ccc21	inactive
[2H]C([2H])([2H])Oc1ccc(F)cc1/C=C/C(=O)/C=C(O)/C=C/c1cc(F)ccc1OC([2H])([2H])[2H]	inactive
COc1ccc(C(=O)c2cc3c(N)c(C(=O)Nc4ccccc4)sc3nc2C)cc1	inactive

I'd appreciate the recorded outcome for CC1=C(C(=O)Nc2ccccc2)C(c2ccc3c(c2)OCO3)NC(=S)N1 (configuration not stated) from this test.
inactive

I'd appreciate the recorded outcome for "CC1(C)N=C(N)N=C(N)N1c1cccc(CCc2ccccc2)c1" from this test.
inactive

---

growth reference
# System: SF-268 CNS
# testMethodNotes: NCI-60 one-dose screen, 48 h (100 = growth as untreated, 0 = no growth, -100 = all killed)
# particulars: 10 µM unless noted
The panel holds about 83,000 compounds, 20% with a hit somewhere; the sample as a whole holds those more often. Activity calls are given as the source filed them. Rule for the calls: active = growth percent below 10; inactive = the rest.

Examples with their reported growth follow.
compound	growth
COc1ccc(/C=C2\CN(C(=O)C(Cl)Cl)C/C(=C\c3ccc(OC)cc3)C2=O)cc1	23.6% (inactive)
c1ccc(CCNc2c3ccccc3nc3ccccc23)cc1	66.5% (inactive)
C=C(C)[C@@H]1CC[C@]2(C)[C@H](CC=C3[C@@H]4CC(C)(C)CC[C@]4(CO)CC[C@]32C)[C@@]1(C)CCCN	67.6% (inactive)
O=C1/C=C/[C@@H](O)[C@@H]2C[C@@H](O)C[C@H]2/C=C/CCC[C@@H](O)CCO1	85.6% (inactive)
CNC(=O)c1cc(Oc2ccc3c(c2)sc2nc(-c4ccc(OC)cc4)cn23)ccn1	80.1% (inactive)

Could you now look at the following compound, please?
State its growth: "Oc1c(CN2CCC(N3CCCCC3)CC2)cc(Cc2cc(CN3CCC(N4CCCCC4)CC3)c(O)c3ncccc23)c2cccnc12"
27.9% (inactive)

---

# Test system: SF-295 CNS
# testMethodNotes: NCI-60 one-dose screen, 48 h
# particulars: 10 µM unless noted
# Protocol: Cells are grown in 96 well plates and exposed to the test compound for 48 hours. Compounds are tested at a single concentration, which is 10^-5 M for most compounds. The reported endpoint is percent growth (GI% or GIPRCNT), where numbers from 0 - 100% represent growth inhibition, and numbers from -100% - 0 represent cell death. For example, a value of 40 represents 60% growth inhibition. A value of 0 means no net growth occurred over the course of the experiment. […]
This is part of a sample that, as a whole, favours compounds with a hit. Of some 83,000 tested, about 20% had one in any assay. The source made the active and inactive calls. Rule for the calls: active = growth percent below 10; inactive = the rest.
Outcome (select one): y (active), n (inactive)

I'd appreciate the recorded outcome for "COc1ccccc1C(=O)Nc1cccc(NC(=O)c2ccoc2C)c1" from this test.
n
